For reference, log10 IC50 measured on prolyl endopeptidase (Rattus norvegicus):
log10 IC50, nM

Any idea what log10 IC50 was measured for O=C1CCCN1CC(=O)N1CSC[C@H]1C(=O)N1CCSC1 [Compound 9] ? 2.18

Any idea what log10 IC50 was measured for CC(=O)ON=C[C@@H]1CSCN1C(=O)[C@@H]1CCCN1C(=O)CN1CCCC1=O [Compound 23] ? 2.81

Any idea what log10 IC50 was measured for CC(=O)ON=C[C@@H]1CCCN1C(=O)CCC(=O)NCc1ccc(Cl)cc1 [Compound 21] ? 1.60

Any idea what log10 IC50 was measured for CC(=O)ON=C[C@@H]1CCCN1C(=O)[C@@H]1CCCN1C(=O)OCc1ccccc1 [Compound 15] ? 0.65

Any idea what log10 IC50 was measured for N#C[C@@H]1CCCN1C(=O)[C@@H]1CCCN1C(=O)OCc1ccccc1 [Compound 19] ? -0.46
